- Test system: A549
- METHOD_DESCRIPTION: Human cells cytotoxicity, A549
- Format: cell-based
- REPORTED_CONDITIONS: pneumocyte line A549
pIC50: −log10 of the molar value.
RESULT_TYPE: pIC50

CC(=O)N[C@H]1[C@H](Oc2ccc(COC(=O)N[C@@H]3[C@H](O)[C@H](O[C@H]4/C=C/C=C/C=C/C=C/C=C/C=C/C=C/[C@H](C)[C@@H](O)[C@@H](C)[C@H](C)OC(=O)C[C@H](O)C[C@H](O)CC[C@@H](O)[C@H](O)C[C@H](O)C[C@]5(O)C[C@H](O)[C@@H](C(=O)O)[C@H](C4)O5)O[C@H](C)[C@H]3O)cc2[N+](=O)[O-])O[C@H](CO)[C@@H](O)[C@@H]1O	< 4.00
